# Tested on: HepG2
# Assay Notes: GSK_TCMDC: Percent inhibition of human HepG2 cell line. Test compounds present at 10uM.
# Type: functional
Please use the following Inhibition ranges when assigning a class: lo = under 10%, med = from 10% up to 40%, hi = 40% and over

stdin: Please let me know in which category the item COc1ccc(Br)cc1C1C2C(=O)N(c3ccc(Br)cc3)C(=O)C2C2(C(=O)O)CC(OCc3ccccc3)CN12 (stereo unspecified) belongs.
stdout: med

stdin: Please let me know in which category the item CC(CC(=O)NCC1(c2ccc(F)cc2Cl)CCOCC1)C(=O)c1ccc(Cl)cc1 (stereo unspecified) belongs.
stdout: lo

stdin: Please let me know in which category the item "Cc1noc(-c2ccc(N3CCC(C(=O)N4CCN(C(C)C)CC4)CC3)cc2)n1.Cl" belongs.
stdout: lo

stdin: Please let me know in which category the item CCc1ccc(CN2CCC(CNC(=O)c3cc(-c4ccccc4F)cs3)C2)cc1.O=C(O)C(F)(F)F (stereo unspecified) belongs.
stdout: med

stdin: Please let me know in which category the item C=CCc1ccccc1OCC(O)CN(C1CCCCC1)C1CCCCC1.Cl (stereo unspecified) belongs.
stdout: hi

stdin: Please let me know in which category the item "COCCCNC(=O)[C@H]1CNCCN1C(=O)c1ccccc1.O=C(O)C(F)(F)F" belongs.
stdout: hi

stdin: Please let me know in which category the item "CON(CCCN(C)C)C(=N)N.Cl" belongs.
stdout: lo

stdin: Please let me know in which category the item "Cc1cc(NCCC(=O)NCCc2ccccc2)nc(NCCc2ccc(F)cc2)n1.O=C(O)C(F)(F)F" belongs.
stdout: lo

stdin: Please let me know in which category the item O=C(Nc1ccc(C(F)(F)F)cc1)c1cccc(S(=O)(=O)NC2CCN(CC3CCCCC3)C2)c1.O=C(O)C(F)(F)F (stereo unspecified) belongs.
stdout: med

stdin: Please let me know in which category the item "O=C(C=Cc1ccc(Cl)c(Cl)c1)NCCCCCN1CCC(CCNC(=O)/C=C/c2ccccc2)CC1" belongs.
stdout: med

stdin: Please let me know in which category the item "CCN(CC)Cc1cccc(-c2cc3c(-c4ccc(C(=O)O)c(C(C)C)c4)ccnc3[nH]2)c1OC.O=C(O)C(F)(F)F" belongs.
stdout: hi

stdin: Please let me know in which category the item "Cc1cccc2nc(-c3ccc(-c4ccc(CNCc5ccc(CN)cc5)cc4)cc3)[nH]c12.O=C(O)C(F)(F)F" belongs.
stdout: med

stdin: Please let me know in which category the item "CC(C)N1CCC(N(Cc2ccc(-c3ccc(C(F)(F)F)cc3)cc2)C(=O)Cn2c(SCc3cccc(F)c3F)cc(=O)c3ccccc32)CC1.O=C(O)C(O)C(O)C(=O)O" belongs.
stdout: hi

stdin: Please let me know in which category the item "CNC(=O)Cc1ccc(C(=O)Nc2cccc(-c3csc(-c4nc5ccccc5[nH]4)c3)c2)cc1" belongs.
stdout: med

stdin: Please let me know in which category the item "Br.CCCc1cc(OCCCOc2ccccc2)ccc1OCCCON1C(=N)N=C(N)NC1(C)C" belongs.
stdout: hi

stdin: Please let me know in which category the item "CCN1CCN(c2cc(C)c3cc(NC(=O)c4cccc([N+](=O)[O-])c4)ccc3n2)CC1" belongs.
stdout: hi

stdin: Please let me know in which category the item "Cn1nccc1C(=O)NCCNCc1cccc(-c2cccc(-c3nc4cc(F)ccc4[nH]3)c2)c1.O=C(O)C(F)(F)F" belongs.
stdout: med

stdin: Please let me know in which category the item "COc1ccc(-c2nonc2NC(=O)c2cccc(C)c2)cc1OC" belongs.
stdout: med

stdin: Please let me know in which category the item "Cc1sc(C)c(CNCCCNc2cc(=O)c3ccccc3[nH]2)c1Br.Cl" belongs.
stdout: lo

stdin: Please let me know in which category the item "COc1ccc(NC(=O)Nc2ccc(-c3ccc(-c4nc5cccc(C)c5[nH]4)s3)cc2)cc1" belongs.
stdout: hi

stdin: Please let me know in which category the item "O=C(Nc1ccc([N+](=O)[O-])cc1Br)c1cc2ccccc2nc1Cl" belongs.
stdout: lo

stdin: Please let me know in which category the item O=C(Nc1ccc2c(c1)CCN2C1CCN(Cc2cccc(C(F)(F)F)c2)C1)c1ccco1 (stereo unspecified) belongs.
stdout: lo

stdin: Please let me know in which category the item "CNC(=O)c1cncc(/C=C/c2ccccc2S(N)(=O)=O)c1" belongs.
stdout: med

stdin: Please let me know in which category the item CCN(CC)c1ccc(C=CC(=O)NCCN2CCC(N(C)C3CCCCC3C)CC2)cc1 (stereo unspecified) belongs.
stdout: med

stdin: Please let me know in which category the item "Br.Cc1cccc2c(CON3C(N)=NC(N)=NC3(C)C)cccc12" belongs.
stdout: hi

stdin: Please let me know in which category the item CC1=C(C(=O)Nc2cc3cn[nH]c3cc2F)C(c2cccc(NS(C)(=O)=O)c2)CC(=O)N1 (stereo unspecified) belongs.
stdout: lo

stdin: Please let me know in which category the item N#Cc1ccc(CN2CCC(Oc3ccc(NC(=O)c4cccs4)cc3Cl)C2)cc1.O=C(O)C(F)(F)F (stereo unspecified) belongs.
stdout: med

stdin: Please let me know in which category the item "N#Cc1ccc(N(CCOc2ccc(Cl)cc2)Cc2ccccc2C(F)(F)F)cc1C(F)(F)F" belongs.
stdout: lo

stdin: Please let me know in which category the item "N#Cc1ccc(C(=O)Nc2cccc(-c3ccc(CN4CCCC4)cc3)c2)cc1.O=C(O)C(F)(F)F" belongs.
stdout: med

stdin: Please let me know in which category the item "NC(=O)c1cccc(C(=O)Nc2cccc(-c3csc(-c4nc5ccccc5[nH]4)c3)c2)c1" belongs.
stdout: med

stdin: Please let me know in which category the item "Cc1cccc(CN2CCC(C(=O)Nc3ccc(-c4nc5ccccc5[nH]4)cc3)CC2)n1" belongs.
stdout: lo

stdin: Please let me know in which category the item "COc1ccc(NC(=O)c2cccc(Br)c2)cc1N1CCN(CCCCCCCN2CCN(c3cc(NC(=O)c4cccc(Br)c4)ccc3OC)CC2)CC1.Cl" belongs.
stdout: hi

stdin: Please let me know in which category the item CC(C)CC1(C(=O)OC(C)(C)C)CC(C(=O)OC(C)(C)C)C(c2cccs2)N1C(=O)c1ccc(C(C)(C)C)cc1 (stereo unspecified) belongs.
stdout: med
